Entries and their IC50
# study_system: recombinant human MAO-B (monoamine oxidase-B) (Homo sapiens)
# Construct: purchased Sigma-Aldrich
# Sequence (P27338 whole entry): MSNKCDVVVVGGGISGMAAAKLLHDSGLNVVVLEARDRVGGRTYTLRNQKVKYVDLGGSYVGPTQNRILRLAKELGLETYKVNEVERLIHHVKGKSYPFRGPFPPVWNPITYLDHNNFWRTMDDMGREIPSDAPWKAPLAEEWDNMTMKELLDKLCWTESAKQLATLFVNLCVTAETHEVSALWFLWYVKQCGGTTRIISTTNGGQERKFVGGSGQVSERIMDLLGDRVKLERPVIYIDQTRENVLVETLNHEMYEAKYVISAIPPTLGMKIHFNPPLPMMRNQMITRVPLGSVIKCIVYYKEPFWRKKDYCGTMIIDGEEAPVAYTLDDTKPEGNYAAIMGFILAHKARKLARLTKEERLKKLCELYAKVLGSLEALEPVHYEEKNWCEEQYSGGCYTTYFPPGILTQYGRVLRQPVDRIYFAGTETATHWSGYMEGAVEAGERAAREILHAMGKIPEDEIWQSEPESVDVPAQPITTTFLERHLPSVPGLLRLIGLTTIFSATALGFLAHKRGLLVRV
# protocol_summary: Amplex Red HRP-coupled amine oxidase activity evaluation, recombinant human MAO-B
# Assay type: biochemical
# experimental_setup: substrate 1 mM benzylamine; read-out: Inhibitory Activity (IC50, nM) MAO-B
Where a name gives a salt, the structure may show the parent alone.
assay_metric: IC50 (nM)

compound="Cc1ccc(-c2cc(C)c3c(c2)CCC(=O)N3)nc1-n1nnn(CC(CN)=C(F)F)c1=O [Example 25, trifluoroacetate]" relation_sign=> test_result=100000
compound="CCn1cc(-c2ccc(C)c(-n3nnn(CC(CN)=C(F)F)c3=O)n2)ccc1=O [Example 24, trifluoroacetate]" relation_sign=> test_result=100000
compound="CS(=O)(=O)c1ccc(-c2ccc(-n3nnn(CC(CN)=C(F)F)c3=O)cc2)cc1 [Example 16, trifluoroacetate]" relation_sign== test_result=260
compound="CCn1cc(-c2cccc(-n3nnn(CC(CN)=C(F)F)c3=O)c2)cn1 [Example 15, trifluoroacetate]" relation_sign== test_result=43500
compound="NCC(Cn1ccn(Cc2ccc(-c3ccn4ncnc4c3)s2)c1=O)=C(F)F [Example 53, trifluoroacetate]" relation_sign== test_result=80500
compound="CCn1cc(-c2ccc(Cn3ccn(CC(CN)=C(F)F)c3=O)s2)cn1 [Example 52, trifluoroacetate]" relation_sign== test_result=60200
compound="CCn1cc(-c2ccc(Cn3c(C)nn(CC(CN)=C(F)F)c3=O)s2)cn1 [Example 1, trifluoroacetate]" relation_sign=> test_result=100000
compound="CN(C)c1ccc(-c2csc(-n3nnn(CC(CN)=C(F)F)c3=O)c2)cn1 [Example 38, trifluoroacetate]" relation_sign== test_result=768
compound="Cc1cc(-c2ccc(Cn3c(C)nn(CC(CN)=C(F)F)c3=O)s2)cc2c1NC(=O)CC2 [Example 7, trifluoroacetate]" relation_sign=> test_result=100000
compound="CS(=O)(=O)c1ccc(-c2cccc(-n3nnn(CC(CN)=C(F)F)c3=O)c2)cc1 [Example 10, trifluoroacetate]" relation_sign== test_result=53200
